target: full-length kinase/Nluc fusion proteins (Homo sapiens, UniProt Q13627); assay: Apparent affinity (EC50) of energy transfer probes by titration onto live HEK293 cells expressing kinase/Nluc fusions (Table S1); conditions: DYRK1A, Nluc N; read-out: Probe EC50
MEASURED_PROPERTY: EC50

Task item: Return the recorded EC50 value; entry: CNC(=O)c1ccccc1Nc1nc(Nc2ccc(N3CCN(C(=O)CCOCCOCCOCCOCCNC(=O)CCc4ccc5n4[B-](F)(F)[N+]4=C(c6ccc[nH]6)C=CC4=C5)CC3)cc2)ncc1Cl [Energy Transfer Probe 5]
Reply: > 1 µM

----------
target: full-length kinase/Nluc fusion proteins (Homo sapiens); assay: Apparent affinity (EC50) of energy transfer probes by titration onto live HEK293 cells expressing kinase/Nluc fusions (Table S1); conditions: AURKA, Nluc C; read-out: Probe EC50
MEASURED_PROPERTY: pEC50
Please report pEC50 as the negative decimal logarithm of the molar concentration, giving only the number.

Task item: Return the recorded pEC50 value; entry: CNC(=O)c1ccccc1Nc1nc(Nc2ccc(N3CCN(C(=O)CCOCCOCCOCCOCCNC(=O)CCc4ccc5n4[B-](F)(F)[N+]4=C(c6ccc[nH]6)C=CC4=C5)CC3)cc2)ncc1Cl [Energy Transfer Probe 5]
Reply: 7.40

Each recorded value in this set is attributed to paper PMC5814754.
